Where these numbers come from: paper PMC9004346

molecular target: CK2α (Homo sapiens, UniProt P68400); construct: 571 nM CK2α_WT (residues 2-329); made in house; assay: Fluorescence polarisation (FP) assay: displacement of a CK2β-like fluorescent probe from CK2α; format: binding; conditions: CK2α_WT (residues 2-329), fluorescein-labelled CK2β-based peptide probe, ±SEM
metric-name: pIC50
One number for each entry, as −log10 of the molar value.

substance	pIC50
Ac-RLYGFKWH-NH2 [Peptide P4, RLYGFKWH]	4.78
Ac-RLYGFKW-NH2 [Peptide P3, RLYGFKW]	4.65

Query block: Would you mind telling me what pIC50 value was observed for Ac-LYGFKW-NH2 [Peptide P2, LYGFKW] ?
Result block: 3.86

====

target: CK2α (Homo sapiens, UniProt P68400); construct: 571 nM CK2α_WT (residues 2-329); made in house; experiment: Fluorescence polarisation (FP) assay: displacement of a CK2β-like fluorescent probe from CK2α; type: binding; conditions: CK2α_WT (residues 2-329), fluorescein-labelled CK2β-based peptide probe, ±SEM
*1 amine or outer side, *2 acyl side, *3 side chain or, on linkers, in order; H or OH if unused. Where a SMILES comes first, the peptide text is derived from it. Bridges are numbered along the chain shown (N, C = ends). mXylylene = c1cc(C[*:1])cc(C[*:2])c1
metric-name: IC50 (µM)
Give bare numbers, in µM.

Query block: Form: Entry = CC(=O)N[C@H]1CSCc2cccc(c2)CSC[C@@H](C(N)=O)NC(=O)[C@H](CCCCN)NC(=O)[C@H](Cc2ccccc2)NC(=O)CNC(=O)[C@H](Cc2ccc(O)cc2)NC(=O)[C@H](CC(C)C)NC(=O)[C@H](CCCNC(=N)N)NC1=O [Peptide P5C5] (Ac-CRLYGFKC-NH2; linker 1-8 via mXylylene) | System = CK2α (Homo sapiens, UniProt P68400) | IC50 = ____
Result block: 28.9

====

Test system CK2α (Homo sapiens, UniProt P68400), pIC50 listed for each of the molecules.
*1 amine or outer side, *2 acyl side, *3 side chain or, on linkers, in order; H or OH if unused. Where a SMILES comes first, the peptide text is derived from it. Bridges are numbered along the chain shown (N, C = ends). [ ]: non-standard residue; d: D form. Trp(2-yl) = O=C([C@H](Cc1c([*:3])[nH]c2ccccc12)N[*:1])[*:2]; X1 = CN(CC(=O)O)c1nc(CC[*:1])cc(CC[*:2])n1; Dap(N3) = [N-]=[N+]=NC[C@H](N)C(=O)O; CH2COCH2 = O=C(C[*:1])C[*:2]
Give bare numbers, as −log10 of the molar value.

Solved entries (count: 3):
molecule	study-target	pIC50
CC(=O)N[C@H]1CSCCc2cc(nc(N(C)CC(=O)O)n2)CCSC[C@@H](C(N)=O)NC(=O)[C@H](CCCCN)NC(=O)[C@H](Cc2ccccc2)NC(=O)CNC(=O)[C@H](Cc2ccc(O)cc2)NC(=O)[C@H](CC(C)C)NC(=O)[C@H](CCCNC(=N)N)NC1=O [Peptide P5C7] (Ac-CRLYGFKC-NH2; linker 1-8 via X1)	CK2α (Homo sapiens, UniProt P68400)	4.40
CC(=O)N[C@H]1CSCC(=O)CSC[C@@H](C(N)=O)NC(=O)[C@H](CCCCN)NC(=O)[C@H](Cc2ccccc2)NC(=O)CNC(=O)[C@H](Cc2ccc(O)cc2)NC(=O)[C@H](CC(C)C)NC(=O)[C@H](CCCNC(=N)N)NC1=O [Peptide P5C4] (Ac-CRLYGFKC-NH2; linker 1-8 via CH2COCH2)	CK2α (Homo sapiens, UniProt P68400)	4.26
CC(=O)N[C@H]1CSc2[nH]c3ccccc3c2C[C@@H](C(N)=O)NC(=O)[C@H](CCCCN)NC(=O)[C@H](Cc2ccccc2)NC(=O)CNC(=O)[C@H](Cc2ccc(O)cc2)NC(=O)[C@H](CC(C)C)NC(=O)[C@H](CCCNC(=N)N)NC1=O [Peptide P7C8, CC8RLYGFKWC8] (Ac-CRLYGFK[Trp(2-yl)]-NH2; thioether 1-8)	CK2α (Homo sapiens, UniProt P68400)	4.81

Read the next record carefully.
Query block: Would you mind telling me what pIC50 value was observed for CC(=O)NCC(=O)N[C@@H](CN=[N+]=[N-])C(=O)N[C@@H](CCCNC(=N)N)C(=O)N[C@@H](CC(C)C)C(=O)N[C@@H](Cc1ccc(O)cc1)C(=O)NCC(=O)N[C@@H](Cc1ccccc1)C(=O)N[C@@H](CCCCN)C(=O)N[C@@H](Cc1c[nH]c2ccccc12)C(=O)N[C@@H](Cc1c[nH]cn1)C(=O)N[C@@H](CN=[N+]=[N-])C(=O)NCC(=O)NCC(N)=O [P+L, reference compound] (Ac-G[Dap(N3)]RLYGFKWH[Dap(N3)]GG-NH2) ?
Result block: 4.93

====

test: MTT cell viability assay in HeLa cells; assay type: cell-based; settings: human
*1 amine or outer side, *2 acyl side, *3 side chain or, on linkers, in order; H or OH if unused. Where a SMILES comes first, the peptide text is derived from it. Bridges are numbered along the chain shown (N, C = ends). [ ]: non-standard residue; d: D form. Trp(2-yl) = O=C([C@H](Cc1c([*:3])[nH]c2ccccc12)N[*:1])[*:2]; hCys = N[C@@H](CCS)C(=O)O; Ahx = NCCCCCC(=O)O
metric-name: viability at 48 h, 50 µM (%)
Numbers only, in %.

Query block: Would you mind telling me what viability at 48 h, 50 µM value was observed for CC(C)C[C@@H]1NC(=O)[C@H](CCCNC(=N)N)NC(=O)[C@@H](NC(=O)CCCCCNC(=O)CCCCCNC(=O)[C@H](CCCNC(=N)N)NC(=O)[C@H](CCCNC(=N)N)NC(=O)[C@@H](N)CCCNC(=N)N)CCSc2[nH]c3ccccc3c2C[C@@H](C(N)=O)NC(=O)[C@H](CCCCN)NC(=O)[C@H](Cc2ccccc2)NC(=O)CNC(=O)[C@H](Cc2ccc(O)cc2)NC1=O [Peptide R3-P8C9] (H-RRR[Ahx][Ahx][hCys]RLYGFK[Trp(2-yl)]-NH2; thioether 6-13) ?
Result block: 66

====

test: MTT cell viability assay in HeLa cells; format: cell-based; conditions: human; HeLa cells, 48 h, 100 μM compound; ±standard deviation; read-out: Cell viability (%) 100 μM compound
metric-name: viability at 48 h, 100 µM (%)
Give bare numbers, in %.

Query block: Would you mind telling me what viability at 48 h, 100 µM value was observed for O=C(O)c1ccc2c(c1)nc(Nc1cccc(Cl)c1)c1ccncc12 [CX-4945, reference compound] ?
Result block: 21

====

Target: CK2α (Homo sapiens, UniProt P68400)
Sequence (P68400 2-329): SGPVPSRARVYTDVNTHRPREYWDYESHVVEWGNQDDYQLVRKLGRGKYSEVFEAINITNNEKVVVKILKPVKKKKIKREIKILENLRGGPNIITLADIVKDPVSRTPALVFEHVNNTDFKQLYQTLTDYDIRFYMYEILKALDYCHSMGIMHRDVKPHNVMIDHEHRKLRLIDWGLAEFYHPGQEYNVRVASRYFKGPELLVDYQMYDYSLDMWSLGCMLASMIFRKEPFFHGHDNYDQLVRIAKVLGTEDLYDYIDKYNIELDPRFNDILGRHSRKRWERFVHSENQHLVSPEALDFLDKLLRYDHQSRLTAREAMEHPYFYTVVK
*1 amine or outer side, *2 acyl side, *3 side chain or, on linkers, in order; H or OH if unused. Where a SMILES comes first, the peptide text is derived from it. Bridges are numbered along the chain shown (N, C = ends). [ ]: non-standard residue; d: D form. Trp(2-yl) = O=C([C@H](Cc1c([*:3])[nH]c2ccccc12)N[*:1])[*:2]; hCys = N[C@@H](CCS)C(=O)O
Would you mind telling me the reported IC50 of each entry?
Answers are plain numbers, in µM.

molecule	study-target	IC50 / µM
CC(=O)NCC(=O)N[C@H]1Cn2cc(nn2)-c2cc(C(=O)O)cc(c2)-c2cn(nn2)C[C@@H](C(=O)NCC(=O)NCC(N)=O)NC(=O)[C@H](Cc2c[nH]cn2)NC(=O)[C@H](Cc2c[nH]c3ccccc23)NC(=O)[C@H](CCCCN)NC(=O)[C@H](Cc2ccccc2)NC(=O)CNC(=O)[C@H](Cc2ccc(O)cc2)NC(=O)[C@H](CC(C)C)NC(=O)[C@H](CCCNC(=N)N)NC1=O [P+, GXC1RLYGFKWHXC1GG, reference compound]	CK2α (Homo sapiens, UniProt P68400)	8.7

Read the next record carefully.
Query block: Would you mind telling me what IC50 value was observed for CC(=O)N[C@H]1CCSc2[nH]c3ccccc3c2C[C@@H](C(N)=O)NC(=O)[C@H](CCCCN)NC(=O)[C@H](Cc2ccccc2)NC(=O)CNC(=O)[C@H](Cc2ccc(O)cc2)NC(=O)[C@H](CC(C)C)NC(=O)[C@H](CCCNC(=N)N)NC1=O [Peptide P8C9, (hC)C9RLYGFKWC9] (Ac-[hCys]RLYGFK[Trp(2-yl)]-NH2; thioether 1-8) ?
Result block: 1.7
